Reference for the values: patent US20220218785A1

- target_entity: T1, human ICOS (human, UniProt Q9Y6W8 21-199)
- T1 construct: whole, on cells
- T1 sequence (looked up): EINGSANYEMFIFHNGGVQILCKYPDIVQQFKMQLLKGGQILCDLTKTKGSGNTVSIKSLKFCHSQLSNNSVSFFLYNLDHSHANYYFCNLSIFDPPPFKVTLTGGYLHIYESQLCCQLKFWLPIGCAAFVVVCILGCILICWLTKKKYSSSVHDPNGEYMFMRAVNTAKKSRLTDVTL
- test_summary: flow cytometry, cells with human ICOS; protein from CHO
assay_endpoint: MFI (ΔWT) (fold vs WT)
A number alone suffices; assume fold vs WT.

Return MFI (ΔWT) for the following binder: ICOSL ECD with N52H/N57Y/Q100R/C198R (Table 18) (Fc fusion, not shown: a dimerising Fc or GST, Made in CHO cells; May be the same construct as m37) DTQEKEVRAMVGSDVELSCACPEGSRFDLNDVYVYWQTSESKTVVTYHIPQHSSLEYVDSRYRNRALMSPAGMLRGDFSLRLFNVTPQDEQKFHCLVLSRSLGFQEVLSVEVTLHVAANFSVPVVSAPHSPSQDELTFTCTSINGYPRPNVYWINKTDNSLLDQALQNDTVFLNMRGLYDVVSVLRIARTPSVNIGCRIENVLLQQNLTVGSQTGNDIGERDKITENPVSTGEKNAAT 1.4
